This collection of values is drawn from patent US20180099931A1.

- TARGET_OR_SYSTEM: F508delCFTR (Homo sapiens, UniProt P13569, DEL508-508)
- Construct: expressed in transfected cells; host or cells: CFBE41o- human lung-derived epithelial cells (CFBE4lo-F508delCFTR-HRP), doxycycline-inducible
- Sequence (P13569 with tags, fused parts or gaps DEL508-508): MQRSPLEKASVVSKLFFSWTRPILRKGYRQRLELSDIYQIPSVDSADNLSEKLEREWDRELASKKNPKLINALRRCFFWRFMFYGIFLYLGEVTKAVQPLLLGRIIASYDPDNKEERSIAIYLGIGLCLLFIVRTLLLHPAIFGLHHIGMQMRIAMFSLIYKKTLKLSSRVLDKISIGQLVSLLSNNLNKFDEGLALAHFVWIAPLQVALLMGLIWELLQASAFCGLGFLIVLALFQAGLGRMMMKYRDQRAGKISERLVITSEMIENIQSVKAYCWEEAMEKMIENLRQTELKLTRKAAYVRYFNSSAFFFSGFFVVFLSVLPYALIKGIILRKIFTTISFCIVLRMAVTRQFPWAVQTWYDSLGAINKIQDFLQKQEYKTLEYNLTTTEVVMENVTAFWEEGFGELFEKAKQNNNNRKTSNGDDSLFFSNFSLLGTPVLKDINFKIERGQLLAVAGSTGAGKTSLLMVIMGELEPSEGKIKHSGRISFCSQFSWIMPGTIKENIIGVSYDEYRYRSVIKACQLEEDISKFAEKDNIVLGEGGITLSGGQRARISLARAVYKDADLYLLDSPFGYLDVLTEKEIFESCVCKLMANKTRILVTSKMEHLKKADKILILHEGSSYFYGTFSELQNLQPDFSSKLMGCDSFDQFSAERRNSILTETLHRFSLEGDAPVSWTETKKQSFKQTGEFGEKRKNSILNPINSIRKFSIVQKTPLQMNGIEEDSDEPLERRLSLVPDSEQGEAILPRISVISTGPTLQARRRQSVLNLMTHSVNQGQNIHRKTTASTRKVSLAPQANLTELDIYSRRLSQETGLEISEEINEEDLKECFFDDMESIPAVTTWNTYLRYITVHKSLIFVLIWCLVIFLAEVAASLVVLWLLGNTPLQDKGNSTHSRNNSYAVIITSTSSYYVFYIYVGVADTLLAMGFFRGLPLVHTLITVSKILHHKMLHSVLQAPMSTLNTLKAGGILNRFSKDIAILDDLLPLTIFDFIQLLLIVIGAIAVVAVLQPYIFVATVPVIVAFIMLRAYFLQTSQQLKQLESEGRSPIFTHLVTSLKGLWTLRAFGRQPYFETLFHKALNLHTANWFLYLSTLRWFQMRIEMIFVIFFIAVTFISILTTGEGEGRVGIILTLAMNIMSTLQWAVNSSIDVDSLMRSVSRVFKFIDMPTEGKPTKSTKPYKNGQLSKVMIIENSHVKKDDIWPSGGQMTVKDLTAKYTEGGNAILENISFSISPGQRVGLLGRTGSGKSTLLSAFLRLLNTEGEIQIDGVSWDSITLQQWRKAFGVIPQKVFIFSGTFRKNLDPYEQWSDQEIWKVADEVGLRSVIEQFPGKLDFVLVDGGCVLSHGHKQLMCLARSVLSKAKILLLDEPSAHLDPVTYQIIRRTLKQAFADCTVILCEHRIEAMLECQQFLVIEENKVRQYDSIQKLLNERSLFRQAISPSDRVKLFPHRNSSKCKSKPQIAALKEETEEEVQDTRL
- ASSAY_EXPLANATION: Cell Surface Expression-Horse Radish Peroxidase (CSE-HRP) Assay
- Format: cell-based
- SETUP_CONDITIONS: with co-corrector (2 μM of 3-[(2R,4R)-4-({[1-(2,2-difluoro-1,3-benzodioxol-5-yl)cyclopropyl]carbonyl}amino)-7-methoxy-3,4-dihydro-2H-chromen-2-yl]benzoic acid); read-out: EC50 (with co-corrector)
METRIC: EC50

Some entries whose results are on file:
CO[C@@H](C(=O)N1[C@H](c2cccnc2N(C)C)[C@H](Nc2cc(C(F)(F)F)cc(C)n2)[C@@H](C(C)(C)C)[C@@H]1C(=O)O)c1ccccc1 (racemic) [III-89]; > 10000 nM
COc1nc(C(C)(C)C)ccc1CN[C@H]1[C@H](C(C)(C)C)[C@@H](C(=O)O)N(C(=O)[C@@H]2CCCCO2)[C@H]1c1ccccc1F [Example I-231]; 1000 to 10000 nM
COc1ccc(C(C)(C)C)cc1CN[C@H]1[C@H](C(C)(C)C)[C@@H](C(=O)O)N(C(=O)[C@@H]2CCCN(C(=O)OC(C)C)C2)[C@H]1c1ccccc1 [Example I-246]; 1000 to 10000 nM
COc1ccc(C(C)(C)C)cc1CN[C@H]1[C@H](C(C)(C)C)[C@@H](C(=O)O)N(C(=O)O[C@H]2C[C@@H](C)CC[C@@H]2C(C)C)[C@H]1c1ccccc1 [II-386]; < 1000 nM
COc1nc(C(C)(C)C)ccc1CN[C@H]1[C@H](C(C)(C)C)[C@@H](C(=O)O)N(C(=O)[C@H]2OC[C@H]3CCC[C@H]32)[C@H]1c1ccccc1 (relative stereo) [II-432]; 1000 to 10000 nM

Enquiry: Determine its reported EC50: COc1cccnc1CN[C@@H]1[C@@H](C(C)(C)C)[C@H](C(=O)O)N(C(=O)C2CCCCC2)[C@@H]1c1ccccc1 (racemic) [III-21]
Return: 1000 to 10000 nM

Enquiry: Return EC50 for the following compound: COc1ccc(C(C)(C)C)cc1CN[C@H]1[C@H](C(C)(C)C)[C@@H](C(=O)O)N(C(=O)[C@H]2CCCCO2)[C@H]1c1ccccc1 [II-451]
Return: 1000 to 10000 nM

Enquiry: Quote EC50 reported for CCC(CC)C(=O)N1[C@H](C(=O)O)[C@@H](C(C)(C)C)[C@H](NCc2cc(C(C)(C)C)ccc2OC)[C@@H]1c1ccccc1 [II-329] please.
Return: 1000 to 10000 nM

Enquiry: Assign EC50 to the following record: COc1ncc(C2CCC2)cc1CN[C@H]1[C@H](C(C)(C)C)[C@@H](C(=O)O)N(C(=O)[C@@H]2CCCO2)[C@H]1c1cccnc1C1CC1 [II-588]
Return: 1000 to 10000 nM

Enquiry: Provide EC50 value for the following compound: COc1ccc(C(C)(C)C)cc1CN[C@H]1[C@H](C(C)(C)C)[C@@](C)(C(=O)O)N(C(=O)C2CCCCC2)[C@H]1c1ccccc1 (racemic) [Example I-211]
Return: 1000 to 10000 nM

Enquiry: Input COc1ccc(C(C)(C)C)cc1CN[C@H]1[C@H](C(C)(C)C)[C@@H](C(=O)O)N(C(=O)[C@H]2CCCC(F)(F)C2)[C@H]1c1ccccc1 [Example 30] , output reported EC50.
Return: 1000 to 10000 nM

Enquiry: Query EC50 for COc1ccc(C(C)(C)C)cc1CN[C@H]1[C@H](C(C)(C)C)[C@@H](C(=O)O)N(C(=O)c2c(C)nn(-c3ccccc3F)c2C)[C@H]1c1ccccc1 [Example I-146]
Return: < 1000 nM
